biological target: UniProt Q8I3R0; experiment: IC50 for competition of protein binding to Kinobeads; conditions: assay detail: Kinobeads competition in P. falciparum blood-stage lysate;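 further: native unpurified kinases from lysate captured on beads bearing immobilized kinase inhibitors, with bead-bound kinases quantified by mass spectrometry across compound doses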
pIC50: −log10 of the molar value.
measure: pIC50

pIC50 reading for O=c1[nH]c2ccc(Cl)cc2c(NC2CN3CCC2CC3)c1-c1nc2ccccc2[nH]1 (stereo unspecified) [CHIR-124] : < 4.70

---

target: UniProt Q8II43; test: IC50 for competition of protein binding to Kinobeads; conditions: assay detail: Kinobeads competition in P. falciparum blood-stage lysate
pIC50: −log10 of the molar value.
measure: pIC50

pIC50 reading for O=c1[nH]c2ccc(Cl)cc2c(NC2CN3CCC2CC3)c1-c1nc2ccccc2[nH]1 (stereo unspecified) : < 4.70

---

target: UniProt Q8II27; experiment: IC50 for competition of protein binding to Kinobeads; settings: assay detail: Kinobeads competition in P. falciparum blood-stage lysate
measure: IC50

IC50 of O=c1[nH]c2ccc(Cl)cc2c(NC2CN3CCC2CC3)c1-c1nc2ccccc2[nH]1 (stereo unspecified) , assay on UniProt Q8II27, is > 20 µM

---

molecular target: UniProt Q8I272; assay: IC50 for competition of protein binding to Kinobeads; details: assay detail: Kinobeads competition in P. falciparum blood-stage lysate
measure: IC50

IC50 of O=c1[nH]c2ccc(Cl)cc2c(NC2CN3CCC2CC3)c1-c1nc2ccccc2[nH]1 (stereo unspecified) , assay on UniProt Q8I272, is > 20 µM

---

target: UniProt Q8IEL1; assay: IC50 for competition of protein binding to Kinobeads; conditions: assay detail: Kinobeads competition in P. falciparum blood-stage lysate
measure: IC50
Your answer should be a number followed by the unit of measure.

IC50 reading for O=c1[nH]c2ccc(Cl)cc2c(NC2CN3CCC2CC3)c1-c1nc2ccccc2[nH]1 (stereo unspecified) : 2900 nM

---

target: UniProt Q8I6S4; experiment: IC50 for competition of protein binding to Kinobeads; settings: assay detail: Kinobeads competition in P. falciparum blood-stage lysate
measure: IC50

IC50 of O=c1[nH]c2ccc(Cl)cc2c(NC2CN3CCC2CC3)c1-c1nc2ccccc2[nH]1 (stereo unspecified) [CHIR-124] , assay on UniProt Q8I6S4, is > 20 µM

---

Target: UniProt O77323
Sequence (whole entry): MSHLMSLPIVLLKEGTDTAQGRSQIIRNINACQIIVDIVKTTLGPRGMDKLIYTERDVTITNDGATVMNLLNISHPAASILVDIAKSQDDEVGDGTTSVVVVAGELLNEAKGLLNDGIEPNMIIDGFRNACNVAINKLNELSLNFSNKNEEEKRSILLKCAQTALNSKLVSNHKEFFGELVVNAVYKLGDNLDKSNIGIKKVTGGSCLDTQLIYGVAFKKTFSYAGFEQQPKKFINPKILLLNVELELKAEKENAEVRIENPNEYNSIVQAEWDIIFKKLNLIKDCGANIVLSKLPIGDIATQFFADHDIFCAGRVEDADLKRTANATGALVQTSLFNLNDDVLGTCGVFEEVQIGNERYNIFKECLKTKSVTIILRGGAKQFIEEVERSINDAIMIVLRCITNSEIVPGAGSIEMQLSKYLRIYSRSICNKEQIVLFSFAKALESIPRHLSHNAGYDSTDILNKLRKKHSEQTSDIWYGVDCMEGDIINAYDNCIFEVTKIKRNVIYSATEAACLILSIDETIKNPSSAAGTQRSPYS
Assay: IC50 for competition of protein binding to Kinobeads
Settings: assay detail: Kinobeads competition in P. falciparum blood-stage lysate
pIC50: −log10 of the molar value.
measure: pIC50

pIC50 reading for O=c1[nH]c2ccc(Cl)cc2c(NC2CN3CCC2CC3)c1-c1nc2ccccc2[nH]1 (stereo unspecified) [CHIR-124] : < 4.70

---

molecular target: UniProt Q8IKF6; test: IC50 for competition of protein binding to Kinobeads; details: assay detail: Kinobeads competition in P. falciparum blood-stage lysate
measure: IC50

IC50 reading for O=c1[nH]c2ccc(Cl)cc2c(NC2CN3CCC2CC3)c1-c1nc2ccccc2[nH]1 (stereo unspecified) [CHIR-124] : > 20 µM

---

target: UniProt Q7KQM0; experiment: IC50 for competition of protein binding to Kinobeads; settings: assay detail: Kinobeads competition in P. falciparum blood-stage lysate
Sequence (Q7KQM0 whole entry): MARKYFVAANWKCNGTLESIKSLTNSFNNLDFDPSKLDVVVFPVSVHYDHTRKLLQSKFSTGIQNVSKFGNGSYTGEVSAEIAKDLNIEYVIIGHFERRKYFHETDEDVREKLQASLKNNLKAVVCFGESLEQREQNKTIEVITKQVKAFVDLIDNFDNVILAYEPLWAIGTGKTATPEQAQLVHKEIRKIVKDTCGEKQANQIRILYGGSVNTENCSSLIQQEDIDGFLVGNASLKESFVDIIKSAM
pIC50: −log10 of the molar value.
measure: pIC50

pIC50 reading for O=c1[nH]c2ccc(Cl)cc2c(NC2CN3CCC2CC3)c1-c1nc2ccccc2[nH]1 (stereo unspecified) : < 4.70

---

target: UniProt C6S3E1; assay: IC50 for competition of protein binding to Kinobeads; settings: assay detail: Kinobeads competition in P. falciparum blood-stage lysate
pIC50: −log10 of the molar value.
measure: pIC50

pIC50 reading for O=c1[nH]c2ccc(Cl)cc2c(NC2CN3CCC2CC3)c1-c1nc2ccccc2[nH]1 (stereo unspecified) : < 4.70

---

biological target: UniProt Q8I5L6; test: IC50 for competition of protein binding to Kinobeads; conditions: assay detail: Kinobeads competition in P. falciparum blood-stage lysate
pIC50: −log10 of the molar value.
measure: pIC50

pIC50 reading for O=c1[nH]c2ccc(Cl)cc2c(NC2CN3CCC2CC3)c1-c1nc2ccccc2[nH]1 (stereo unspecified) : < 4.70

---

molecular target: UniProt Q8IDB8; assay: IC50 for competition of protein binding to Kinobeads; conditions: assay detail: Kinobeads competition in P. falciparum blood-stage lysate
pIC50: −log10 of the molar value.
measure: pIC50

pIC50 reading for O=c1[nH]c2ccc(Cl)cc2c(NC2CN3CCC2CC3)c1-c1nc2ccccc2[nH]1 (stereo unspecified) : < 4.70

---

target: UniProt Q8I502; test: IC50 for competition of protein binding to Kinobeads; settings: assay detail: Kinobeads competition in P. falciparum blood-stage lysate
pIC50: −log10 of the molar value.
measure: pIC50

pIC50 reading for O=c1[nH]c2ccc(Cl)cc2c(NC2CN3CCC2CC3)c1-c1nc2ccccc2[nH]1 (stereo unspecified) : < 4.70

---

Target: UniProt Q8IIL0
Sequence (whole entry): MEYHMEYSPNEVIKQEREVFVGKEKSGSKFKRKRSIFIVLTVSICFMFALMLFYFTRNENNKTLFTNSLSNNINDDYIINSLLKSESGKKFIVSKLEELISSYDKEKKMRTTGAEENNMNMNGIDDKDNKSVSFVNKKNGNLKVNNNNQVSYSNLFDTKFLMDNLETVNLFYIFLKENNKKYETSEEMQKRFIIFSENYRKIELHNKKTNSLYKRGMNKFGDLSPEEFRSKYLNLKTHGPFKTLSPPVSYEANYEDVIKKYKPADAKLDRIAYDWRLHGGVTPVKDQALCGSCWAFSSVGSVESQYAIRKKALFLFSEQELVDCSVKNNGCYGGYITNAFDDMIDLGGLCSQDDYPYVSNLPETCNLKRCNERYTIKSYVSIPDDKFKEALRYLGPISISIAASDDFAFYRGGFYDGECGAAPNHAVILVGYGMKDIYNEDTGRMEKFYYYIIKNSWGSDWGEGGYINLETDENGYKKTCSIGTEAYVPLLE
Test: IC50 for competition of protein binding to Kinobeads
Conditions: assay detail: Kinobeads competition in P. falciparum blood-stage lysate
pIC50: −log10 of the molar value.
measure: pIC50

pIC50 of O=c1[nH]c2ccc(Cl)cc2c(NC2CN3CCC2CC3)c1-c1nc2ccccc2[nH]1 (stereo unspecified) , assay on UniProt Q8IIL0, is < 4.70

---

target: UniProt Q9TY99; test: IC50 for competition of protein binding to Kinobeads; settings: assay detail: Kinobeads competition in P. falciparum blood-stage lysate
pIC50: −log10 of the molar value.
measure: pIC50

pIC50 reading for O=c1[nH]c2ccc(Cl)cc2c(NC2CN3CCC2CC3)c1-c1nc2ccccc2[nH]1 (stereo unspecified) : < 4.70

---

target: UniProt Q8IJS1; experiment: IC50 for competition of protein binding to Kinobeads; conditions: assay detail: Kinobeads competition in P. falciparum blood-stage lysate
measure: IC50

IC50 of O=c1[nH]c2ccc(Cl)cc2c(NC2CN3CCC2CC3)c1-c1nc2ccccc2[nH]1 (stereo unspecified) [CHIR-124] , assay on UniProt Q8IJS1, is > 20 µM

---

molecular target: UniProt Q8IAV1; experiment: IC50 for competition of protein binding to Kinobeads; details: assay detail: Kinobeads competition in P. falciparum blood-stage lysate
pIC50: −log10 of the molar value.
measure: pIC50

pIC50 reading for O=c1[nH]c2ccc(Cl)cc2c(NC2CN3CCC2CC3)c1-c1nc2ccccc2[nH]1 (stereo unspecified) : < 4.70

---

biological target: UniProt Q8IIW5; test: IC50 for competition of protein binding to Kinobeads; conditions: assay detail: Kinobeads competition in P. falciparum blood-stage lysate
measure: IC50

IC50 reading for O=c1[nH]c2ccc(Cl)cc2c(NC2CN3CCC2CC3)c1-c1nc2ccccc2[nH]1 (stereo unspecified) [CHIR-124] : > 20 µM

---

target: UniProt Q8IAW5; test: IC50 for competition of protein binding to Kinobeads; conditions: assay detail: Kinobeads competition in P. falciparum blood-stage lysate
measure: IC50

IC50 reading for O=c1[nH]c2ccc(Cl)cc2c(NC2CN3CCC2CC3)c1-c1nc2ccccc2[nH]1 (stereo unspecified) : > 20 µM
